# AC50 per entry for 5-hydroxytryptamine receptor 6 (Homo sapiens, UniProt P50406)
Form entry: value (nM) — number only.

# lookup: AC50 of `COc1cc(C(C)=O)ccc1OCCCN1CCC(c2noc3cc(F)ccc23)CC1`
257

// repeat for `O=C(/C=C/c1cccc(S(=O)(=O)Nc2ccccc2)c1)NO` and report
2470

And `CN(C)CCCN1c2ccccc2CCc2ccccc21` ?
313

----------
Field: AC50. Provide a value for each of the compounds that follow.
target: 5-hydroxytryptamine receptor 1A (Homo sapiens); assay type: functional, cell-based; note: assay procedure not described here
Sequence (P08908 whole entry): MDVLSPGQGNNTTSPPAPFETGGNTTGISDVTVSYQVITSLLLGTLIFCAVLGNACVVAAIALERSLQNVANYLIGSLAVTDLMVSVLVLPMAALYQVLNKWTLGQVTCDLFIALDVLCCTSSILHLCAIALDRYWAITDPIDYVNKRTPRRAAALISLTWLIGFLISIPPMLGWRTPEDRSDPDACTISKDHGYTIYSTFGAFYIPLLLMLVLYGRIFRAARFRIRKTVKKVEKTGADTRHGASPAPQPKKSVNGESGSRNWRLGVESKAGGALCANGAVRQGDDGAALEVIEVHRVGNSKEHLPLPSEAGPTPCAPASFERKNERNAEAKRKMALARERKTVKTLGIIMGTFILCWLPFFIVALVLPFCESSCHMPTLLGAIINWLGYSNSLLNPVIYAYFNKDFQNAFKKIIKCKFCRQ

I'm curious: which AC50 was measured for O=C(O)COCCN1CCN(C(c2ccccc2)c2ccc(Cl)cc2)CC1 (stereo not given) tested on 5-hydroxytryptamine receptor 1A (Homo sapiens)?; note: assay procedure not described here
> 10 µM

Entry `C[N+](C)(C)CCOP(=O)([O-])OC[C@H](O)CO` please
> 30 µM

Next: `Fc1ccc([C@@H]2CCNC[C@H]2COc2ccc3c(c2)OCO3)cc1`
> 10 µM

Entry to check: `CC(C)c1cccc(C(C)C)c1O`
> 30 µM

Same question, `C[C@@H]1C[C@H]2[C@@H]3CCC4=CC(=O)C=C[C@]4(C)[C@@]3(F)[C@@H](O)C[C@]2(C)[C@@]1(O)C(=O)CO` this time
> 10 µM

Record: NC[C@H]1CC[C@H](C(=O)Oc2ccc(CCC(=O)O)cc2)CC1 [CETRAXATE]
> 30 µM

Entry to check: Cn1c(=O)c2c(ncn2CCOC(=O)C(C)(C)Oc2ccc(Cl)cc2)n(C)c1=O [THEOFIBRATE]
> 30 µM

Follow-up item: `Cc1onc(-c2c(F)cccc2Cl)c1C(=O)N[C@@H]1C(=O)N2[C@@H]1SC(C)(C)[C@@H]2C(=O)O`
> 30 µM

Proceed to `CN(C)CCCN1c2ccccc2CCc2ccccc21`
> 10 µM

What do you get for CCCC(C)(COC(N)=O)COC(N)=O [MEPROBAMATE] ?
> 10 µM
